EC50 for assorted compounds
System: circBRIP1 in HCT116 cells
EXPERIMENTAL PROTOCOL: DHX9 circBRIP1 cellular target engagement SYBR Green assay (qPCR)
Assay type: cell-based
STATED CONDITIONS: Homo sapiens, HCT-116, circBRIP1, HCT116 cells; SyBr assay (marked ^+); read-out: DHX9 Cellular Target Engagement EC50

# COMPOUND, TESTED SYSTEM, UNIT ANNOTATION, COMPARISON SYMBOL, EC50
records = [
    ("CS(=O)(=O)Nc1cc(Cl)cc(NC(=O)c2cc(-c3ncccc3C(F)(F)F)cs2)c1", "circBRIP1 in HCT116 cells", "nM", "=", 421),
    ("Cc1sc(C(=O)Nc2cc(Cl)cc(NS(C)(=O)=O)c2)cc1-c1cn(Cc2ccccc2)nn1", "circBRIP1 in HCT116 cells", "nM", "=", 645),
    ("CS(=O)(=O)Nc1cc(Cl)cc(NC(=O)c2cc(-c3ncccc3NC(=O)C3CC3)cs2)c1", "circBRIP1 in HCT116 cells", "nM", "=", 303),
    ("CS(=O)(=O)Nc1cc(Cl)cc(NC(=O)c2cnn(C3CCCC3)c2)c1", "circBRIP1 in HCT116 cells", "nM", "=", 3730),
    ("CS(=O)(=O)Nc1cc(Cl)cc(NC(=O)c2cnn(C3CC4(CC(N)C4)C3)c2)c1 (centres unmarked)", "circBRIP1 in HCT116 cells", "nM", ">", 10000),
]

###

Test system: circBRIP1 in HCT116 cells
EXPERIMENTAL PROTOCOL: DHX9 circBRIP1 cellular target engagement SYBR Green assay (qPCR)
Format: cell-based
STATED CONDITIONS: Homo sapiens, HCT-116, circBRIP1, HCT116 cells; SyBr assay (marked ^+); read-out: DHX9 Cellular Target Engagement EC50
REPORTED PROPERTY: EC50 (nM)

# MOLECULE, COMPARISON SYMBOL, ENDPOINT VALUE
measured = [
    ("Cc1cn2cc(C(=O)Nc3cc(Cl)cc(NS(C)(=O)=O)c3)cc2c(C)n1", ">", 10000),
    ("CS(=O)(=O)Nc1cc(Cl)cc(NC(=O)c2cc(C(F)(F)F)n(-c3ccc(N4CCOCC4)cn3)c2)c1", "=", 761),
    ("CS(=O)(=O)Nc1cc(Cl)cc(NC(=O)c2cnn(-c3ncccc3S(C)(=O)=O)c2)c1", ">", 10000),
    ("CS(=O)(=O)Nc1cc(Cl)cc(NC(=O)c2cc3c(F)cccc3s2)c1", "=", 1140),
    ("CS(=O)(=O)Nc1cc(Cl)cc(NC(=O)c2cnn(-c3c(F)cccc3OCc3cccc(F)c3)c2)c1", "=", 189),
    ("CS(=O)(=O)Nc1cc(Cl)cc(NC(=O)c2cc(-c3ncccc3Cc3ncccn3)cs2)c1", "=", 122),
    ("CS(=O)(=O)Nc1cc(Cl)cc(NC(=O)c2cnn(C3CCN(CC(F)(F)F)CC3)c2)c1", "=", 4920),
    ("CCS(=O)(=O)Nc1cc(Cl)cc(NC(=O)c2cc(-c3ncc(F)cn3)c(C)s2)c1", "=", 153),
    ("CS(=O)(=O)Nc1cc(Cl)cc(NC(=O)c2cc(-c3ccc(N4CC5(COC5)C4)cn3)n(CC(F)(F)F)c2)c1", "=", 251),
    ("CS(=O)(=O)Nc1cc(Cl)cc(NC(=O)c2cnn(C3CCOC3)c2)c1 (stereo not shown)", ">", 10000),
    ("CS(=O)(=O)Nc1cc(Cl)cc(NC(=O)c2cc3c(F)c(F)ccc3s2)c1", "=", 5900),
    ("COc1ccc(-n2cc(C(=O)Nc3cc(Cl)cc(NS(C)(=O)=O)c3)cc2C)nc1", "=", 63),
    ("CS(=O)(=O)Nc1cc(Cl)cc(NC(=O)c2cnn(-c3ncccc3COc3cncc(F)c3)c2)c1", "=", 439),
    ("CS(=O)(=O)Nc1cc(Cl)cc(NC(=O)c2cc(CN)n(-c3ccccn3)c2)c1", "=", 2090),
    ("CC1(C)CC(n2cc(C(=O)Nc3cc(Cl)cc(NS(C)(=O)=O)c3)cn2)CCN1 (stereo not shown)", ">", 10000),
    ("CS(=O)(=O)Nc1cc(Cl)cc(NC(=O)c2cnn(C3CC4(C3)CN(CC(F)(F)F)C4)c2)c1", "=", 9970),
]

###

pEC50 for assorted molecules
Tested on: circBRIP1 in HCT116 cells
EXPERIMENTAL PROTOCOL: DHX9 circBRIP1 cellular target engagement SYBR Green assay (qPCR)
Assay type: cell-based
STATED CONDITIONS: Homo sapiens, HCT-116, circBRIP1, HCT116 cells; SyBr assay (marked ^+); read-out: DHX9 Cellular Target Engagement EC50
pEC50: −log10 of the molar value.

# CHEMICAL STRUCTURE, COMPARISON SYMBOL, pEC50
rows = [
    ("Cn1cc(C(=O)Nc2cc(Cl)cc(NS(C)(=O)=O)c2)cc1-c1ccc(N2CCOCC2)cn1", "=", 7.43),
    ("CS(=O)(=O)Nc1cc(Cl)cc(NC(=O)c2cnn(-c3ncccc3Oc3ncccn3)c2)c1", "=", 5.17),
    ("CS(=O)(=O)Nc1cc(Cl)cc(NC(=O)c2cc3c(C(F)(F)F)cccc3s2)c1", "<", 5.00),
    ("Cc1sc(C(=O)Nc2cc(Cl)cc(NS(C)(=O)=O)c2)cc1-c1cn(-c2ccccc2)nn1", "=", 6.97),
    ("CN1CCN(c2cnc(-n3cc(C(=O)Nc4cc(Cl)cc(NS(C)(=O)=O)c4)cn3)cn2)CC1=O", "<", 5.00),
    ("CP(C)(=O)c1cccnc1-n1cc(C(=O)Nc2cc(Cl)cc(NS(C)(=O)=O)c2)cn1", "<", 5.00),
    ("Cc1cnc(-n2cc(C(=O)Nc3cc(Cl)cc(NS(C)(=O)=O)c3)cn2)c(OCc2cnco2)c1", "=", 5.82),
    ("CS(=O)(=O)Nc1cc(Cl)cc(NC(=O)c2cnn(-c3ccc(S(C)(=O)=O)cn3)c2)c1", "<", 5.00),
]

###

System: NCI-H747 cells
EXPERIMENTAL PROTOCOL: DHX9 cellular proliferation assay (CellTiter-Glo), NCI-H747 (CRC-MSS)
Format: cell-based
STATED CONDITIONS: Homo sapiens, NCI-H747, read-out: H747 (CRC-MSS) Antiproliferative IC50
pIC50: −log10 of the molar value.

# CHEMICAL STRUCTURE, pIC50
data = [
    ("Cc1sc(C(=O)Nc2cc(Cl)cc(NS(C)(=O)=O)c2)cc1-c1ncc(OC(C)C)cn1", 5.22),
]

###

System: circBRIP1 in HCT116 cells
EXPERIMENTAL PROTOCOL: DHX9 circBRIP1 cellular target engagement SYBR Green assay (qPCR)
Type: cell-based
STATED CONDITIONS: Homo sapiens, HCT-116, circBRIP1, HCT116 cells; SyBr assay (marked ^+); read-out: DHX9 Cellular Target Engagement EC50
REPORTED PROPERTY: EC50 (nM)

# COMPOUND, TESTED SYSTEM, COMPARISON SYMBOL, ENDPOINT VALUE
records = [
    ("CN1CCC(c2ccc(-n3cc(C(=O)Nc4cc(Cl)cc(NS(C)(=O)=O)c4)cn3)nc2)CC1=O (stereo not shown)", "circBRIP1 in HCT116 cells", "=", 1160),
    ("CS(=O)(=O)Nc1cc(Cl)cc(NC(=O)c2cc3c(F)ccc(F)c3s2)c1", "circBRIP1 in HCT116 cells", "=", 6090),
    ("CS(=O)(=O)Nc1cc(Cl)cc(NC(=O)c2cnn(-c3cnc(N4CCOCC4)cn3)c2)c1", "circBRIP1 in HCT116 cells", "=", 6530),
    ("CS(=O)(=O)Nc1cc(Cl)cc(NC(=O)c2cc(N3CCNCC3)cs2)c1", "circBRIP1 in HCT116 cells", ">", 10000),
    ("CS(=O)(=O)Nc1cc(Cl)cc(NC(=O)c2cc3cc(F)ccc3s2)c1", "circBRIP1 in HCT116 cells", ">", 10000),
    ("CS(=O)(=O)Nc1cc(Cl)cc(NC(=O)c2cnn(-c3ncc(N4CCOCC4)cc3OCc3cccnc3)c2)c1", "circBRIP1 in HCT116 cells", "=", 2680),
    ("CCS(=O)(=O)Nc1cc(Cl)cc(NC(=O)c2cc(-c3ncccn3)n(C)c2)c1", "circBRIP1 in HCT116 cells", "=", 118),
    ("CS(=O)(=O)Nc1cc(Cl)cc(NC(=O)c2cc3c(F)cccn3c2)c1", "circBRIP1 in HCT116 cells", "=", 3330),
    ("CC(=O)N1CC2(CC(n3cc(C(=O)Nc4cc(Cl)cc(NS(C)(=O)=O)c4)cn3)C2)C1", "circBRIP1 in HCT116 cells", ">", 10000),
    ("COCc1sc(C(=O)Nc2cc(Cl)cc(NS(C)(=O)=O)c2)cc1-c1ccccn1", "circBRIP1 in HCT116 cells", "=", 1180),
    ("Cc1cc(C(=O)Nc2cc(Cl)cc(NS(C)(=O)=O)c2)cn1-c1ncc(N2CCOCC2)cc1F", "circBRIP1 in HCT116 cells", "=", 96.1),
    ("CS(=O)(=O)Nc1cc(Cl)cc(NC(=O)c2cnn(-c3ncc(F)cc3OCc3cccc(C#N)c3)c2)c1", "circBRIP1 in HCT116 cells", "=", 341),
    ("CC(=O)N1CCC(n2cc(C(=O)Nc3cc(Cl)cc(NS(C)(=O)=O)c3)cn2)CC1", "circBRIP1 in HCT116 cells", ">", 10000),
    ("Cc1cc(C(=O)Nc2cc(Cl)cc(NS(C)(=O)=O)c2)cn1-c1ncc(F)cn1", "circBRIP1 in HCT116 cells", "=", 508),
    ("CS(=O)(=O)Nc1cc(Cl)cc(NC(=O)c2cc(-c3ncccc3CC(=O)N3CCCC3)cs2)c1", "circBRIP1 in HCT116 cells", "=", 557),
    ("CN(C)C(=O)Cc1cccnc1-c1csc(C(=O)Nc2cc(Cl)cc(NS(C)(=O)=O)c2)c1", "circBRIP1 in HCT116 cells", "=", 121),
]
